# System: RT4 (Bladder Carcinoma)
# experimentalDetails: Bliss excess, mean over the matrix (fraction); higher = more synergy;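 note: after 72 h of two-drug dosing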
metricName: Bliss excess
Hey, just send me the number, nothing else.

Solved cases (2 shown):
1) COc1nnc2ccc(N3CCC(c4ccc(OCCN5CCN(C)C(=O)[C@H]5C)cc4)CC3)nn12 [AZD5153] + C=CCn1c(=O)c2cnc(Nc3ccc(N4CCN(C)CC4)cc3)nc2n1-c1cccc(C(C)(C)O)n1 [AZD1775] (first compound max 1 µM, partner max 1 µM) | -0.0064
2) NC1(C(=O)N[C@@H](CCO)c2ccc(Cl)cc2)CCN(c2ncnc3[nH]ccc23)CC1 [Capivasertib] + C[C@@H]1COCCN1C2=NC(=NC(=C2)C3(CC3)[S@](=N)(=O)C)C4=C5C=CNC5=NC=C4 [AZD6738] (first compound max 10 µM, 7x7, partner max 10 µM) | -0.022

Consider now this further molecule.
Inquiry: Respond only with Bliss excess recorded for COc1cccc(OCCCN)c1-c1cc(Nc2cnc(C#N)cn2)n[nH]1 [Prexasertib] + O=C(c1cc(Cc2n[nH]c(=O)c3ccccc23)ccc1F)N1CCN(C(=O)C2CC2)CC1 [Olaparib] (first compound max 1 µM, 7x7, partner max 10 µM)
Reply text: 0.0044

----------
# Tested on: SJRH30 (Rhabdomyosarcoma)
# experimentalDetails: Bliss excess, mean over the matrix (fraction); higher = more synergy
metricName: Bliss excess
Hey, just send me the number, nothing else.

1. CC1(C)CCC(CN2CCN(c3ccc(C(=O)NS(=O)(=O)c4ccc(NCC5CCOCC5)c([N+](=O)[O-])c4)c(Oc4cnc5[nH]ccc5c4)c3)CC2)=C(c2ccc(Cl)cc2)C1 [Venetoclax] + C=CCn1c(=O)c2cnc(Nc3ccc(N4CCN(C)CC4)cc3)nc2n1-c1cccc(C(C)(C)O)n1 [AZD1775] (first compound max 1 µM, partner max 1 µM) | -0.045
2. C[C@@H](c1ccc2nccn2c1)n1nnc2ncc(-c3cnn(C)c3)nc21 [Savolitinib] + CN(CC[C@H](CSC1=CC=CC=C1)NC2=C(C=C(C=C2)S(=O)(=O)NC(=O)C3=CC=C(C=C3)N4CCC(CC4)[C@H](C5=CC=CC=C5C6=CC=C(C=C6)Cl)O)S(=O)(=O)C(F)(F)F)CCO [AZD4320] (first compound max 1 µM, 7x7, partner max 1 µM) | -0.0203

Inquiry: Respond only with Bliss excess recorded for CN(CCO)CC[C@H](CSc1ccccc1)Nc1ccc(S(=O)(=O)NC(=O)c2ccc(N3CCC([C@@H](O)c4ccccc4-c4ccc(Cl)cc4)CC3)cc2)cc1S(=O)(=O)C(F)(F)F [AZD4320] + C[C@@H](Nc1cc(F)cc(F)c1)c1cc(C(=O)N(C)C)cc2c(=O)cc(N3CCOCC3)oc12 [AZD8186] (first compound max 1 µM, 7x7, partner max 3 µM)
Reply text: 0.0718

Inquiry: Respond only with Bliss excess recorded for COc1nnc2ccc(N3CCC(c4ccc(OCCN5CCN(C)C(=O)[C@H]5C)cc4)CC3)nn12 [AZD5153] + C=CCn1c(=O)c2cnc(Nc3ccc(N4CCN(C)CC4)cc3)nc2n1-c1cccc(C(C)(C)O)n1 [AZD1775] (first compound max 1 µM, partner max 1 µM)
Reply text: -0.019

Inquiry: Respond only with Bliss excess recorded for CN(CCO)CC[C@H](CSc1ccccc1)Nc1ccc(S(=O)(=O)NC(=O)c2ccc(N3CCC([C@@H](O)c4ccccc4-c4ccc(Cl)cc4)CC3)cc2)cc1S(=O)(=O)C(F)(F)F [AZD4320] + Cn1cnc2c(F)c(Nc3ccc(Br)cc3Cl)c(C(=O)NOCCO)cc21 [Selumetinib] (first compound max 1 µM, 7x7, partner max 3 µM)
Reply text: 0.0587

Inquiry: Respond only with Bliss excess recorded for Cc1c2c(nn1C)CSCc1cc(n(C)n1)CSc1cc(c3ccccc3c1)OCCCc1c(C(=O)O)n(C)c3c-2c(Cl)ccc13 [AZD5991] + Cn1cnc2c(F)c(Nc3ccc(Br)cc3Cl)c(C(=O)NOCCO)cc21 [Selumetinib] (first compound max 1 µM, 7x7, partner max 3 µM)
Reply text: 0.0386

----------
Bliss excess reference
# System: PANC-02-03 (Pancreatic Carcinoma)
# experimentalDetails: Bliss excess, mean over the matrix (fraction); higher = more synergy
Hey, just send me the number, nothing else.

1. CN(CCO)CC[C@H](CSc1ccccc1)Nc1ccc(S(=O)(=O)NC(=O)c2ccc(N3CCC([C@@H](O)c4ccccc4-c4ccc(Cl)cc4)CC3)cc2)cc1S(=O)(=O)C(F)(F)F [AZD4320] + C[C@@H]1COCCN1C2=NC(=NC(=C2)C3(CC3)[S@](=N)(=O)C)C4=C5C=CNC5=NC=C4 [AZD6738] (first compound max 1 µM, 7x7, partner max 10 µM) | -0.0584

Inquiry: Respond only with Bliss excess recorded for CN(CCO)CC[C@H](CSc1ccccc1)Nc1ccc(S(=O)(=O)NC(=O)c2ccc(N3CCC([C@@H](O)c4ccccc4-c4ccc(Cl)cc4)CC3)cc2)cc1S(=O)(=O)C(F)(F)F [AZD4320] + C=CCn1c(=O)c2cnc(Nc3ccc(N4CCN(C)CC4)cc3)nc2n1-c1cccc(C(C)(C)O)n1 [AZD1775] (first compound max 1 µM, partner max 1 µM)
Reply text: 0.0045

Inquiry: Respond only with Bliss excess recorded for CS(=O)(=O)CCNCc1ccc(-c2ccc3ncnc(Nc4ccc(OCc5cccc(F)c5)c(Cl)c4)c3c2)o1 [Lapatinib] + Cn1cnc2c(F)c(Nc3ccc(Br)cc3Cl)c(C(=O)NOCCO)cc21 [Selumetinib] (first compound max 10 µM, 7x7, partner max 10 µM)
Reply text: 0.0604

Inquiry: Respond only with Bliss excess recorded for CC1(C)CCC(CN2CCN(c3ccc(C(=O)NS(=O)(=O)c4ccc(NCC5CCOCC5)c([N+](=O)[O-])c4)c(Oc4cnc5[nH]ccc5c4)c3)CC2)=C(c2ccc(Cl)cc2)C1 [Venetoclax] + C[C@@H]1COCCN1C2=NC(=NC(=C2)C3(CC3)[S@](=N)(=O)C)C4=C5C=CNC5=NC=C4 [AZD6738] (first compound max 1 µM, 7x7, partner max 10 µM)
Reply text: -0.0199

----------
# System: KYM-1 (Rhabdomyosarcoma)
# experimentalDetails: Bliss excess, mean over the matrix (fraction); higher = more synergy
Classify by measured Bliss excess: t if it is equal to or exceeds 0.06, f if it is smaller.

1. Cc1cc2ncnn2cc1Nc1ncc2c(n1)n(C1CCOCC1)c(=O)n2C [AZD7648] + CCN(CCO)CCCOc1ccc2c(Nc3cc(CC(=O)Nc4cccc(F)c4)[nH]n3)ncnc2c1 [AZD2811] (first compound max 10 µM, 7x7, partner max 1 µM) | f
2. CC1(C)CCC(CN2CCN(c3ccc(C(=O)NS(=O)(=O)c4ccc(NCC5CCOCC5)c([N+](=O)[O-])c4)c(Oc4cnc5[nH]ccc5c4)c3)CC2)=C(c2ccc(Cl)cc2)C1 [Venetoclax] + C=CCn1c(=O)c2cnc(Nc3ccc(N4CCN(C)CC4)cc3)nc2n1-c1cccc(C(C)(C)O)n1 [AZD1775] (first compound max 1 µM, partner max 1 µM) | f
3. Cc1c2c(nn1C)CSCc1cc(n(C)n1)CSc1cc(c3ccccc3c1)OCCCc1c(C(=O)O)n(C)c3c-2c(Cl)ccc13 [AZD5991] + CCN(CCO)CCCOc1ccc2c(Nc3cc(CC(=O)Nc4cccc(F)c4)[nH]n3)ncnc2c1 [AZD2811] (first compound max 1 µM, 7x7, partner max 1 µM) | t

Inquiry: Quick check: does CS(=O)(=O)CCNCc1ccc(-c2ccc3ncnc(Nc4ccc(OCc5cccc(F)c5)c(Cl)c4)c3c2)o1 [Lapatinib] + NC1(c2ccc(-c3nc4ccn5c(=O)[nH]nc5c4cc3-c3ccccc3)cc2)CCC1 [MK-2206] (first compound max 10 µM, 7x7, partner max 10 µM) have Bliss excess greater than or equal to 0.06?
Reply text: f

Inquiry: Quick check: does Cn1cnc2c(F)c(Nc3ccc(Br)cc3Cl)c(C(=O)NOCCO)cc21 [Selumetinib] + CC(C)n1c(=O)n(C)c2cnc3cc(F)c(-c4ccc(OCCCN5CCCCC5)nc4)cc3c21 [AZD1390] (first compound max 10 µM, 7x7, partner max 0.3 µM) have Bliss excess greater than or equal to 0.06?
Reply text: f
